- System: HuCCA-1 (cholangiocarcinoma derived from a patient)
- Assay Details: Cytotoxic activity assay (MTT)
- Format: cell-based, human
- Conditions Used: SI = IC50 normal cell (MRC-5)/ IC50 cancer cell
Record 1 whenever Selectivity Index (SI) values HuCCA-1 is at 1 or higher; record -1 when lower.

Answered cases to consult:
{"Compound": "C=C1CC[C@H]2C(C)(C)CCC[C@]2(C)[C@H]1CC/C(C)=C/C(=O)NN", "Discrete Label": 1}
{"Compound": "C=C1CC[C@H]2C(C)(C)CCC[C@]2(C)[C@H]1CC/C(C)=C/C(=O)NCC(=O)OC", "Discrete Label": -1}
{"Compound": "C=C1CC[C@H]2C(C)(C)CCC[C@]2(C)[C@H]1CC/C(C)=C/C(=O)NOC1CCCCO1 (some centres unmarked)", "Discrete Label": -1}
{"Compound": "C=C1CC[C@H]2C(C)(C)CCC[C@]2(C)[C@H]1CC/C(C)=C/C(=O)NOC", "Discrete Label": 1}
{"Compound": "C=C1CCC2C(C)(C)CCCC2(C)C1CCC(C)=CC(=O)NCC(=O)OCC (centres unmarked)", "Discrete Label": -1}
{"Compound": "C=C1CC[C@H]2C(C)(C)CCC[C@]2(C)[C@H]1CC/C(C)=C/C(=O)NCCc1c[nH]c2ccccc12", "Discrete Label": 1}
{"Compound": "C=C1CC[C@H]2C(C)(C)CCC[C@]2(C)[C@H]1CC/C(C)=C/C(=O)N(C)OC", "Discrete Label": -1}
{"Compound": "C=C1CCC2C(C)(C)CCCC2(C)C1CCC(C)=CCO (centres unmarked) [Compound 2, anticopalol]", "Discrete Label": 1}
{"Compound": "C=C1CC[C@H]2C(C)(C)CCC[C@]2(C)[C@H]1CC/C(C)=C/C(=O)NC", "Discrete Label": -1}
{"Compound": "C=C1CC[C@H]2C(C)(C)CCC[C@]2(C)[C@H]1CC/C(C)=C/C(=O)N(C)C", "Discrete Label": -1}

API: above_or_equal(metric=Selectivity Index (SI) values HuCCA-1, cutoff=1) for item `C#CCNC(=O)/C=C(\C)CC[C@H]1C(=C)CC[C@H]2C(C)(C)CCC[C@]12C`
-1

Reported Selectivity Index (SI) values HuCCA-1 reaches at least 1 for `C=C1CC[C@H]2C(C)(C)CCC[C@]2(C)[C@H]1CC/C(C)=C/C(=O)N(C)O` ?
1

Dear colleague, could you confirm whether `C=C1CC[C@H]2C(C)(C)CCC[C@]2(C)[C@H]1CC/C(C)=C/C(=O)N1CCCCC1` has Selectivity Index (SI) values HuCCA-1 at or above 1?
-1

====

- System: T-47D (hormone-dependent breast cancer)
- Assay Details: Cytotoxic activity assay (MTT)
- Assay type: cell-based, human
- Conditions Used: SI = IC50 normal cell (MRC-5)/ IC50 cancer cell
Measured Selectivity Index (SI) values T47-D values are reported for all entries that follow.
Write no unit; give the number alone.

Before answering, review these 2 worked examples.
{"Compound": "C=C1CCC2C(C)(C)CCCC2(C)C1CCC(C)=CCO (stereo not shown) [Compound 2, anticopalol]", "Selectivity Index (SI) values T47-D": 1.0}
{"Compound": "C=C1CC[C@H]2C(C)(C)CCC[C@]2(C)[C@H]1CC/C(C)=C/C(=O)NCc1ccccc1", "Selectivity Index (SI) values T47-D": 1.0}

Supply reported Selectivity Index (SI) values T47-D belonging to this compound: `C=C1CC[C@H]2C(C)(C)CCC[C@]2(C)[C@H]1CC/C(C)=C/C(=O)N(C)O`
2.0

Name the recorded Selectivity Index (SI) values T47-D of the item `C=C1CC[C@H]2C(C)(C)CCC[C@]2(C)[C@H]1CC/C(C)=C/C(=O)NCC(=O)OC` in your answer.
0.9

Give Selectivity Index (SI) values T47-D for the following compound: `C=C1CC[C@H]2C(C)(C)CCC[C@]2(C)[C@H]1CC/C(C)=C/C(=O)NN`
0.9

Please report Selectivity Index (SI) values T47-D for the following compound: C=C1CCC2C(C)(C)CCC[C@]2(C)[C@H]1CC/C(C)=C/C=O (stereo partly shown)
1.3

Identify measured Selectivity Index (SI) values T47-D associated with `C#CCNC(=O)/C=C(\C)CC[C@H]1C(=C)CC[C@H]2C(C)(C)CCC[C@]12C`
0.6

Quickly give me recorded Selectivity Index (SI) values T47-D for C=C1CC[C@H]2C(C)(C)CCC[C@]2(C)[C@H]1CC/C(C)=C/C(=O)NOC1CCCCO1 (stereo partly shown)
0.6

Dear colleague, please send me the reported Selectivity Index (SI) values T47-D for `C=C1CC[C@H]2C(C)(C)CCC[C@]2(C)[C@H]1CC/C(C)=C/C(=O)Nc1ccccc1` when you can.
1.0

====

Overview of reported Selectivity Index (SI) values MOLT-3 across a group of molecules:
- Tested on: MOLT-3 (T cell acute lymphoblastic leukemia)
- Assay Details: Cytotoxic activity assay (XTT)
- Assay type: cell-based, human
- Conditions Used: SI = IC50 normal cell (MRC-5)/ IC50 cancer cell
- Protocol: […] The cells were seeded into 96-well plates (100 µL for adherent cells and 75 µL for suspended cells) at a density of 5000–20,000 cells per well, depending on their growth rates. […] Following 48 h of exposure, cell viability was determined using MTT assay for adherent cells[51],[52]or XTT assay for suspeended cells. […] Afterwards, the absorbance of orange formazan at 492 nm was measured with a reference wavelength of 690 nm using a microplate reader.
Would you mind answering with just the numeric figure?

Answered cases to consult:
{"Molecule": "C=C1CC[C@H]2C(C)(C)CCC[C@]2(C)[C@H]1CC/C(C)=C/C(=O)NOC1CCCCO1 (stereo partly shown)", "Selectivity Index (SI) values MOLT-3": 1.5}
{"Molecule": "C=C1CC[C@H]2C(C)(C)CCC[C@]2(C)[C@H]1CC/C(C)=C/C(=O)NCC(=O)O", "Selectivity Index (SI) values MOLT-3": 1.6}
{"Molecule": "C=C1CC[C@H]2C(C)(C)CCC[C@]2(C)[C@H]1CC/C(C)=C/C(=O)NCc1ccccc1", "Selectivity Index (SI) values MOLT-3": 1.0}

Here's the next entry for you.
Tell me measured Selectivity Index (SI) values MOLT-3 for `C=C1CC[C@H]2C(C)(C)CCC[C@]2(C)[C@H]1CC/C(C)=C/C(=O)NOC` please.
2.5

====

- Test system: MDA-MB-231 (triple-negative breast cancer)
- Assay Details: Cytotoxic activity assay (MTT)
- Assay type: cell-based, human
- Conditions Used: Homo sapiens, MDA-MB-231; 48 h exposure, MTT; read-out: Cell lines, IC50 (μM) MDA-MB-231
Attribute Measured: IC50 (µM)
Report the figure in µM without appending any unit label.

{"Compound": "C=C1CC[C@H]2C(C)(C)CCC[C@]2(C)[C@H]1CC/C(C)=C/C(=O)N(C)O", "Experimental System": "MDA-MB-231 (triple-negative breast cancer)", "Attribute Measured": "IC50", "Reported": 24.5}
{"Compound": "C=C1CC[C@H]2C(C)(C)CCC[C@]2(C)[C@H]1CC/C(C)=C/C(=O)NCc1ccccn1", "Experimental System": "MDA-MB-231 (triple-negative breast cancer)", "Attribute Measured": "IC50", "Reported": 35.1}

Please turn your attention to the following entry.
For the compound C=C1CC[C@H]2C(C)(C)CCC[C@]2(C)[C@H]1CC/C(C)=C/C(=O)NOC1CCCCO1 (stereo partly shown) , give its reported IC50.
13.7

====

- Tested on: HepG2 (hepatocellular carcinoma)
- Assay Details: Cytotoxic activity assay (MTT)
- Assay type: cell-based, human
- Conditions Used: SI = IC50 normal cell (MRC-5)/ IC50 cancer cell
Attribute Measured: Selectivity Index (SI) values HepG2
Write the value as a bare number.

{"Molecule": "C=CCNC(=O)/C=C(\\C)CC[C@H]1C(=C)CC[C@H]2C(C)(C)CCC[C@]12C", "Selectivity Index (SI) values HepG2": 1.4}

Please supply the value of reported Selectivity Index (SI) values HepG2 for the item `C=C1CC[C@H]2C(C)(C)CCC[C@]2(C)[C@H]1CC/C(C)=C/C(=O)NOC`
1.2

Entry COc1cccc2c1C(=O)c1c(O)c3c(c(O)c1C2=O)C[C@@](O)(C(=O)CO)C[C@@H]3O[C@H]1C[C@H](N)[C@H](O)[C@H](C)O1 [DOX, doxorubicin, reference compound] needs its Selectivity Index (SI) values HepG2 filled in; supply it.
1.9

Check the records and state Selectivity Index (SI) values HepG2 for `C=C1CC[C@H]2C(C)(C)CCC[C@]2(C)[C@H]1CC/C(C)=C/C(=O)NN`
0.9

Supply measured Selectivity Index (SI) values HepG2 of C=C1CCC2C(C)(C)CCCC2(C)C1CCC(C)=CC(=O)O (stereo not drawn) [Compound 1, anticopalic acid] in your reply.
1.0

Assign Selectivity Index (SI) values HepG2 to the following record: `C=C1CC[C@H]2C(C)(C)CCC[C@]2(C)[C@H]1CC/C(C)=C/C(=O)N1CCCCC1`
1.2
